Test system: cbb promoter
Format: cell-based, Ralstonia eutropha
CONDITION SUMMARY: Table 12, chemoautotrophic (induced) growth
Consider the following molecules; for each one, report its Chemoautotrophic β-galactosidase activity.

Look up and report measured Chemoautotrophic β-galactosidase activity for this entry: A117V (protein) MSSFLRALTLRQLQIFVTVARHASFVRAAEELHLTQPAVSMQVKQLESVVGMALFERVKGQLTLTEPGDRLLHHASRILGEVKDAEEGLQAVKDVEQGSITIGLISTSKYFAPKLLVGFTALHPGVDLRIAEGNRETLLRLLQDNAIDLALMGRPPRELDAVSEPIAAHPHVLVASPRHPLHDAKGFDLQELRHETFLLREPGSGTRTVAEYMFRDHLFTPAKVITLGSNETIKQAVMAGMGISLLSLHTLGLELRTGEIGLLDVAGTPIERIWHVAHMSSKRLSPASESCRAYLLEHTAEFLGREYGGLMPGRRVA
6793 nmol/min/mg of protein

Tell me Chemoautotrophic β-galactosidase activity reported for A167V (protein) MSSFLRALTLRQLQIFVTVARHASFVRAAEELHLTQPAVSMQVKQLESVVGMALFERVKGQLTLTEPGDRLLHHASRILGEVKDAEEGLQAVKDVEQGSITIGLISTSKYFAPKLLAGFTALHPGVDLRIAEGNRETLLRLLQDNAIDLALMGRPPRELDAVSEPIVAHPHVLVASPRHPLHDAKGFDLQELRHETFLLREPGSGTRTVAEYMFRDHLFTPAKVITLGSNETIKQAVMAGMGISLLSLHTLGLELRTGEIGLLDVAGTPIERIWHVAHMSSKRLSPASESCRAYLLEHTAEFLGREYGGLMPGRRVA
7373 nmol/min/mg of protein

For the molecule T232A (protein) MSSFLRALTLRQLQIFVTVARHASFVRAAEELHLTQPAVSMQVKQLESVVGMALFERVKGQLTLTEPGDRLLHHASRILGEVKDAEEGLQAVKDVEQGSITIGLISTSKYFAPKLLAGFTALHPGVDLRIAEGNRETLLRLLQDNAIDLALMGRPPRELDAVSEPIAAHPHVLVASPRHPLHDAKGFDLQELRHETFLLREPGSGTRTVAEYMFRDHLFTPAKVITLGSNEAIKQAVMAGMGISLLSLHTLGLELRTGEIGLLDVAGTPIERIWHVAHMSSKRLSPASESCRAYLLEHTAEFLGREYGGLMPGRRVA , give its reported Chemoautotrophic β-galactosidase activity.
5269 nmol/min/mg of protein

Return the recorded Chemoautotrophic β-galactosidase activity value; entry: wt CbbR: wild-type CbbR (R. eutropha), 317 amino acids, SEQ ID NO: 1 (protein) MSSFLRALTLRQLQIFVTVARHASFVRAAEELHLTQPAVSMQVKQLESVVGMALFERVKGQLTLTEPGDRLLHHASRILGEVKDAEEGLQAVKDVEQGSITIGLISTSKYFAPKLLAGFTALHPGVDLRIAEGNRETLLRLLQDNAIDLALMGRPPRELDAVSEPIAAHPHVLVASPRHPLHDAKGFDLQELRHETFLLREPGSGTRTVAEYMFRDHLFTPAKVITLGSNETIKQAVMAGMGISLLSLHTLGLELRTGEIGLLDVAGTPIERIWHVAHMSSKRLSPASESCRAYLLEHTAEFLGREYGGLMPGRRVA
3265 nmol/min/mg of protein

Give reported Chemoautotrophic β-galactosidase activity value for G205D (protein) MSSFLRALTLRQLQIFVTVARHASFVRAAEELHLTQPAVSMQVKQLESVVGMALFERVKGQLTLTEPGDRLLHHASRILGEVKDAEEGLQAVKDVEQGSITIGLISTSKYFAPKLLAGFTALHPGVDLRIAEGNRETLLRLLQDNAIDLALMGRPPRELDAVSEPIAAHPHVLVASPRHPLHDAKGFDLQELRHETFLLREPGSDTRTVAEYMFRDHLFTPAKVITLGSNETIKQAVMAGMGISLLSLHTLGLELRTGEIGLLDVAGTPIERIWHVAHMSSKRLSPASESCRAYLLEHTAEFLGREYGGLMPGRRVA
2241 nmol/min/mg of protein

Report measured Chemoautotrophic β-galactosidase activity; entry is G205D/G118D (protein) MSSFLRALTLRQLQIFVTVARHASFVRAAEELHLTQPAVSMQVKQLESVVGMALFERVKGQLTLTEPGDRLLHHASRILGEVKDAEEGLQAVKDVEQGSITIGLISTSKYFAPKLLADFTALHPGVDLRIAEGNRETLLRLLQDNAIDLALMGRPPRELDAVSEPIAAHPHVLVASPRHPLHDAKGFDLQELRHETFLLREPGSDTRTVAEYMFRDHLFTPAKVITLGSNETIKQAVMAGMGISLLSLHTLGLELRTGEIGLLDVAGTPIERIWHVAHMSSKRLSPASESCRAYLLEHTAEFLGREYGGLMPGRRVA
3939 nmol/min/mg of protein

Provide only the value of recorded Chemoautotrophic β-galactosidase activity for D144N (protein) MSSFLRALTLRQLQIFVTVARHASFVRAAEELHLTQPAVSMQVKQLESVVGMALFERVKGQLTLTEPGDRLLHHASRILGEVKDAEEGLQAVKDVEQGSITIGLISTSKYFAPKLLAGFTALHPGVDLRIAEGNRETLLRLLQNNAIDLALMGRPPRELDAVSEPIAAHPHVLVASPRHPLHDAKGFDLQELRHETFLLREPGSGTRTVAEYMFRDHLFTPAKVITLGSNETIKQAVMAGMGISLLSLHTLGLELRTGEIGLLDVAGTPIERIWHVAHMSSKRLSPASESCRAYLLEHTAEFLGREYGGLMPGRRVA
6932 nmol/min/mg of protein

// Input: E87K (protein) MSSFLRALTLRQLQIFVTVARHASFVRAAEELHLTQPAVSMQVKQLESVVGMALFERVKGQLTLTEPGDRLLHHASRILGEVKDAEKGLQAVKDVEQGSITIGLISTSKYFAPKLLAGFTALHPGVDLRIAEGNRETLLRLLQDNAIDLALMGRPPRELDAVSEPIAAHPHVLVASPRHPLHDAKGFDLQELRHETFLLREPGSGTRTVAEYMFRDHLFTPAKVITLGSNETIKQAVMAGMGISLLSLHTLGLELRTGEIGLLDVAGTPIERIWHVAHMSSKRLSPASESCRAYLLEHTAEFLGREYGGLMPGRRVA . Output its Chemoautotrophic β-galactosidase activity only.
5515 nmol/min/mg of protein

The reported measurements were obtained from patent US20170298395A1.
